B1: Hairpin Ribozyme (parent)
chain: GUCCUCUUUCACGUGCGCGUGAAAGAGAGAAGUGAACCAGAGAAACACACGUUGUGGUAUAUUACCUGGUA

- Variants of: B1
- test name: self-cleavage, relative activity (ratio to wild type); higher = more cleavage; co-transcriptional
measured attribute: self-cleavage

>  <variant spec>
U9A G29C

>  <self-cleavage>
0.154

$$$$

self-cleavage for U8G C10U ? 0.654
